These measurements were taken from ChEMBL document CHEMBL3286320.

// each record: one item and its pKi for UniProt P25103
Reminder that pKi means the negative base-10 logarithm of the concentration expressed in mol/L.

Known pKi results, listed for orientation:
Problem: Query pKi on UniProt P25103 for CN1C(=O)OC2(CCN(CC[C@@](C)(C(=O)N(C)[C@H](Cc3ccccc3)C(=O)NCCN)c3ccc(Cl)c(Cl)c3)CC2)c2cc(F)ccc21
Result: 8.60

Problem: Query pKi on UniProt P25103 for CN1C(=O)OC2(CCN(CC[C@](C)(C(=O)N[C@@H](Cc3ccccc3)C(=O)NCCN)c3ccc(Cl)c(Cl)c3)CC2)c2cc(F)ccc21
Result: 6.40

Problem: Query pKi on UniProt P25103 for CNCCNC(=O)[C@@H](Cc1ccccc1)NC(=O)[C@](C)(CCN1CCC2(CC1)OC(=O)N(C)c1ccc(F)cc12)c1ccc(Cl)c(Cl)c1
Result: 7.80

Problem: Query pKi on UniProt P25103 for CN1C(=O)OC2(CCN(CC[C@@](C)(C(=O)N(C)[C@H](Cc3ccccc3)C(=O)NCCCN)c3ccc(Cl)c(Cl)c3)CC2)c2cc(F)ccc21
Result: 8.40

Problem: Query pKi on UniProt P25103 for CN(C)CCNC(=O)[C@@H](Cc1ccccc1)NC(=O)[C@](C)(CCN1CCC2(CC1)OC(=O)N(C)c1ccc(F)cc12)c1ccc(Cl)c(Cl)c1
Result: 7.40

# next compound below
Problem: Query pKi on UniProt P25103 for CN1C(=O)OC2(CCN(CCC[C@@H](C(=O)N(C)[C@@H](Cc3ccccc3)C(=O)NCCN)c3ccc(Cl)c(Cl)c3)CC2)c2cc(F)ccc21
Result: 7.30

---

measurement target: Substance-P receptor (Homo sapiens)
Sequence (P25103 whole entry): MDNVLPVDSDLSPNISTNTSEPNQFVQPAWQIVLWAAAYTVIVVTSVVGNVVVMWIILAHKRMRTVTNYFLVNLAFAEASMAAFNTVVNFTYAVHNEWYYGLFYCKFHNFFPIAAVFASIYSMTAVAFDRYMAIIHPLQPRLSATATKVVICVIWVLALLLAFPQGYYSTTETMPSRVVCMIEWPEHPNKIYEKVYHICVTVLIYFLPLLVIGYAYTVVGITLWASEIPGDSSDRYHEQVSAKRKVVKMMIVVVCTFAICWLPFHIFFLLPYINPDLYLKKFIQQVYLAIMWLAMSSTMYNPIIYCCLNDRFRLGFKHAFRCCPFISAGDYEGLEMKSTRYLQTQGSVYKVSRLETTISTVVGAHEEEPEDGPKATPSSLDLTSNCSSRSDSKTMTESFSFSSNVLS
measurement kind: pKi
Reminder that pKi means the negative base-10 logarithm of the concentration expressed in mol/L.

Known pKi results, listed for orientation:
Problem: Requested field: pKi. Item: CN1C(=O)OC2(CCN(CC[C@@](C)(C(=O)N[C@H](Cc3ccccc3)C(=O)NCCN)c3ccc(Cl)c(Cl)c3)CC2)c2cc(F)ccc21
Result: 7.70

Problem: Requested field: pKi. Item: CN1C(=O)OC2(CCN(CCC[C@@](C)(C(=O)N[C@H](C(=O)NCCN)c3ccccc3)c3ccc(Cl)c(Cl)c3)CC2)c2cc(F)ccc21
Result: 6.50

Problem: Requested field: pKi. Item: CN1C(=O)OC2(CCN(CC[C@@H](C(=O)N(C)[C@H](C(=O)NCCN)c3ccccc3)c3ccc(Cl)c(Cl)c3)CC2)c2cc(F)ccc21 (racemic)
Result: 6.20

New cases:
Problem: Requested field: pKi. Item: CN1C(=O)OC2(CCN(CCC[C@@](C)(C(=O)N[C@H](Cc3ccccc3)C(=O)NCCO)c3ccc(Cl)c(Cl)c3)CC2)c2cc(F)ccc21
Result: 7.80

Problem: Requested field: pKi. Item: CN(C)CCNC(=O)[C@@H](Cc1ccccc1)NC(=O)[C@](C)(CCCN1CCC2(CC1)OC(=O)N(C)c1ccc(F)cc12)c1ccc(Cl)c(Cl)c1
Result: 7.70

Problem: Requested field: pKi. Item: CN1C(=O)OC2(CCN(CCC[C@H](C(=O)N(C)[C@@H](Cc3ccccc3)C(=O)NCCN)c3ccc(Cl)c(Cl)c3)CC2)c2cc(F)ccc21
Result: 6.40

---

measurement target: UniProt P29371
Sequence (P29371 whole entry): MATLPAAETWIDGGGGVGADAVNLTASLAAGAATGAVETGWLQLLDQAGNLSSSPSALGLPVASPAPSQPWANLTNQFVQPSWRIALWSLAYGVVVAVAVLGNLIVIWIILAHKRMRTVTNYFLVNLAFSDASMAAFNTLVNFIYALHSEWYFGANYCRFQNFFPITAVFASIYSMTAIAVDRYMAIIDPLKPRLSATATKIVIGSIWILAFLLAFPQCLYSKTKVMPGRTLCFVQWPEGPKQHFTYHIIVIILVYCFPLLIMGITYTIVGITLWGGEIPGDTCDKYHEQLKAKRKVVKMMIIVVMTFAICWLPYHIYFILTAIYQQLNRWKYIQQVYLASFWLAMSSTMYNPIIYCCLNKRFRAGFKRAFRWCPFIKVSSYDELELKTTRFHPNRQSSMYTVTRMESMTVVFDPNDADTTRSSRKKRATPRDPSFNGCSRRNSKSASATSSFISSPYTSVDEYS
test details: Displacement of [3H]-SR142801 from human NK3 receptor expressed in recombinant CHO cells
Recorded Ki for the following compounds
Write down the numeric answer in nM and omit the unit.

Problem: Query Ki on UniProt P29371 for CN1C(=O)OC2(CCN(CCC[C@@](C)(C(=O)N[C@H](Cc3ccccc3)C(=O)NCCN)c3ccc(Cl)c(Cl)c3)CC2)c2cc(F)ccc21
Result: 1580

New cases:
Problem: Query Ki on UniProt P29371 for CN1C(=O)OC2(CCN(CC[C@@](C)(C(=O)N(C)[C@H](Cc3ccccc3)C(=O)NCCN)c3ccc(Cl)c(Cl)c3)CC2)c2cc(F)ccc21
Result: 7.94

Problem: Query Ki on UniProt P29371 for CN(C)CCNC(=O)[C@@H](Cc1ccccc1)NC(=O)[C@](C)(CCN1CCC2(CC1)OC(=O)N(C)c1ccc(F)cc12)c1ccc(Cl)c(Cl)c1
Result: 31.6

Problem: Query Ki on UniProt P29371 for CN1C(=O)OC2(CCN(CCC[C@@](C)(C(=O)N[C@H](C(=O)NCCN)c3ccccc3)c3ccc(Cl)c(Cl)c3)CC2)c2cc(F)ccc21
Result: 794

Problem: Query Ki on UniProt P29371 for CN1C(=O)OC2(CCN(CC[C@H](C(=O)N(C)[C@@H](Cc3ccccc3)C(=O)NCCN)c3ccc(Cl)c(Cl)c3)CC2)c2cc(F)ccc21
Result: 1260

Problem: Query Ki on UniProt P29371 for CN1C(=O)OC2(CCN(CC[C@@H](C(=O)N(C)[C@H](C(=O)NCCN)c3ccccc3)c3ccc(Cl)c(Cl)c3)CC2)c2cc(F)ccc21 (racemic)
Result: 2510
